- test-name: protein stability index of a GFP-peptide fusion (GPS, HEK-293T) (PSI 1-6); higher = more stable;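 also: 24-mer peptide tiles fused after GFP, lentivirally expressed, FACS-sorted into six equal bins by GFP/DsRed ratio, decoded by Illumina sequencing, PSI is the read-weighted mean bin number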
- particulars: treatment: DMSO; c terminus: a fixed tail appended
value-type: protein stability index

// solved cases for protein stability index follow
INSERT INTO assay_data (input_sequence, value_type, result) VALUES
  ('KEAAEAIEAEGATAPLTELLHSRN [CTNNB1]', 'protein stability index', 5.38),
  ('DVSLVGGPADCSPPHPAPAPQHPA [DYRK1B]', 'protein stability index', 5.02),
  ('NGNEEDNHLPPQTKRSSRNPVFQD [FAM104A]', 'protein stability index', 5.16),
  ('NNVVDISVPPTTDGQKPNKLQCCQ [RAB11B]', 'protein stability index', 4.72);

Qu. Value lookup for protein stability index; key = KGTFSDVTFKLDDGAISAHKPLLI [RHOBTB1]
Ans. 2.47

Qu. Value lookup for protein stability index; key = FLFPIDISLVKREHDFLDRDAIEA [DLC1]
Ans. 2.66

Qu. Value lookup for protein stability index; key = KLIKCDEIQVDSEEPVFEAVINWV [KLHL12]
Ans. 2.15

Qu. Value lookup for protein stability index; key = AKGGFSGCSAVLSGGSSSSFRAGS [KRT71]
Ans. 3.17

Qu. Value lookup for protein stability index; key = ELMPSSRLWSLSYTKLPSSLQSTG [SLC25A39]
Ans. 2.48

Qu. Value lookup for protein stability index; key = ERAPTATFHDSKHNIVHVHFDATR [WDFY2]
Ans. 3.34

Qu. Value lookup for protein stability index; key = LLFNVKSPTDIQDSSIIRTTQDLF [RHOBTB3]
Ans. 2.37

Qu. Value lookup for protein stability index; key = TKQRIQDQKVPYIFRDNQWVGFDD [CHIT1]
Ans. 3.49

Qu. Value lookup for protein stability index; key = RFPLQEENSVTHHEVKCQGKPLAG [KMT5A]
Ans. 4.69

Qu. Value lookup for protein stability index; key = LTKSQVQDKPYKCTDCGKSFNHNA [ZNF8]
Ans. 3.32

Qu. Value lookup for protein stability index; key = EFRAHRAVLAASSPYFHDQVLLKG [ZBTB22]
Ans. 2.57

Qu. Value lookup for protein stability index; key = APAAPMVSKGAESSRSSEESSSDS [BRD3]
Ans. 5.59

Qu. Value lookup for protein stability index; key = INVSKGINHLLKSPFSVHPKTGRI [PRIM1]
Ans. 2.62

Qu. Value lookup for protein stability index; key = REEMKLKECVSILPRKESPSVRSS [TNFSF13B]
Ans. 4.61

Qu. Value lookup for protein stability index; key = GSANDYKDTLGKGSSLSAPSKKTS [KRT71]
Ans. 5.33

Qu. Value lookup for protein stability index; key = ARELAITDSEHSDAEVSCTDNGTF [RETREG3]
Ans. 5.56

---

- test-name: protein stability index of a GFP-peptide fusion (GPS, HEK-293T) (PSI 1-6); higher = more stable
- particulars: treatment: MLN4924 1 uM, 8 h; c terminus: a fixed tail appended
Item-by-item account of protein stability index
Kindly provide the number alone.

// solved cases for protein stability index follow
INSERT INTO measurements (input_sequence, value_type, result_number) VALUES
  ('AWDNPAYSGPPSPHGTLRVCTISS [PKD2L1]', 'protein stability index', 3.05),
  ('DRGKDSVEILMILFAFMLVYPKEF [PPEF2]', 'protein stability index', 2.71),
  ('YNIPHGPVVGSTRRLYEKKIFEYE [EMD]', 'protein stability index', 3.23),
  ('LKLRQQVIATATVYFKRFYARYSL [CCNC]', 'protein stability index', 2.49),
  ('KQRSVCTWGKNKPGIGAVILKRFC [FAN1]', 'protein stability index', 2.02);

Qu. Value lookup for protein stability index; key = MTESLEASEFLEQSMSQTRELLLD [RSPH3]
Ans. 4.98

Qu. Value lookup for protein stability index; key = PGLLGSMALSNHYRSEDLLDVDTA [FBXO3]
Ans. 4.32

Qu. Value lookup for protein stability index; key = TWKQELLKLMDRHKKDCAREKPFK [ZNF75A]
Ans. 2.88

Qu. Value lookup for protein stability index; key = GSINLLESPQLATLAEDVTAALAK [MAP2]
Ans. 4.05

Qu. Value lookup for protein stability index; key = VKLMMSTLPKSLSLPTTAPSNSSS [MYBL2]
Ans. 3.33

Qu. Value lookup for protein stability index; key = MQQLYQVQLAQQQAALQKQQEVVV [ACBD3]
Ans. 3.05

Qu. Value lookup for protein stability index; key = CQYLMATFVNVYIASFIRGPNPSK [CDS2]
Ans. 3.4

Qu. Value lookup for protein stability index; key = YCKNESGSRSNGMWAHSMTVQDYQ [ATE1]
Ans. 2.7

Qu. Value lookup for protein stability index; key = TYNTKVYKMFASRRKQRYWPFSMD [LOXL2]
Ans. 1.89

Qu. Value lookup for protein stability index; key = REVFNEIYPVWTYSYLVLLFPVFL [SLC19A2]
Ans. 2.62

Qu. Value lookup for protein stability index; key = EAAEAVRPEERKTCRNPACGPQWE [ADAMTSL2]
Ans. 4.74

Qu. Value lookup for protein stability index; key = LTILAKRKSLFDDKAVEIEELTYI [STX5]
Ans. 2.22
